- System: 953936-095-R-J2-PDC spheroids with HUVEC/MSC, viability;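 also: spheroids exposed to compounds for seven days before read-out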
- experimental-protocol: Anticancer human tumor 953936-095-R-J2-PDC patient-derived cervical squamous cell carcinoma cell line growth inhibition [PI3K]
- condition-info: second compound 0.1 µM; first compound 0.1 µM; active compounds read low
assay-endpoint: viability, T/C (%)
Number only, in %; omit the unit.

Solved cases (2 shown):
• C[C@@H](NC(=O)c1ncnc(N)c1Cl)c1ncc(C(=O)Nc2cc(C(F)(F)F)c(Cl)cn2)s1 + CC(Nc1ncnc2nc[nH]c12)c1cc2cccc(Cl)c2c(=O)n1-c1ccccc1 = 106
• CC1(C)CCC(CN2CCN(c3ccc(C(=O)NS(=O)(=O)c4ccc(NCC5CCOCC5)c([N+](=O)[O-])c4)c(Oc4cnc5[nH]ccc5c4)c3)CC2)=C(c2ccc(Cl)cc2)C1 + CC(Nc1ccc2c(c1)OCCn1cc(N3C(=O)OCC3C(F)F)nc1-2)C(N)=O = 53

--- query ---
Task: Tell me its viability, T/C given Cn1ncnc1[C@H]1c2n[nH]c(=O)c3cc(F)cc(c23)N[C@@H]1c1ccc(F)cc1 + CC(Nc1ccc2c(c1)OCCn1cc(N3C(=O)OCC3C(F)F)nc1-2)C(N)=O as the entry.
Result: 50.8
